- Test system: HSD1 enzyme that is expressed in rabbit placenta tissue
- protocol: Inhibition of E1 to E2 conversion in rabbit placenta tissue homogenate
- Type: biochemical
- condition: compound 100 nM, 30 nM estrone, 1 mM β-NADPH, 30 min
Binary call on Rabbit placenta inhibition % @100 nM: Fulfilled from 40% upward, Not fulfilled beneath that.

[[record]]
molecule = "Cc1ccnc(NC(=O)CC[C@@H]2c3c[nH]nc3[C@@]3(C)CCC4c5ccc(F)cc5CCC4C23)c1 (stereo partly shown) [Compound 93]"
class_name = "Not fulfilled"

[[record]]
molecule = "Cc1ccc(NC(=O)CC[C@@H]2c3c[nH]nc3[C@@]3(C)CCC4c5ccc(F)cc5CCC4C23)nn1 (stereo partly shown) [Compound 111]"
class_name = "Fulfilled"

[[record]]
molecule = "C[C@]12CCC3c4ccc(F)cc4CCC3C1[C@H](CCC(=O)Nc1cccnn1)c1c[nH]nc12 (stereo partly shown) [Compound 114]"
class_name = "Fulfilled"

[[record]]
molecule = "C[C@]12CCC3c4ccc(F)cc4CCC3C1[C@H](CCC(=O)Nc1ccc(N3CCOCC3)cn1)c1c[nH]nc12 (stereo partly shown) [Compound 96]"
class_name = "Fulfilled"

[[record]]
molecule = "C[C@]12CCC3c4ccccc4CCC3C1[C@H](CCC(=O)NC1CCC1)c1c[nH]nc12 (stereo partly shown) [Compound 192]"
class_name = "Not fulfilled"

[[record]]
molecule = "COc1ccc(NC(=O)CC[C@@H]2c3c[nH]nc3[C@@]3(C)CCC4c5cccc(F)c5CCC4C23)nc1 (stereo partly shown) [Compound 21]"
class_name = "Fulfilled"

[[record]]
molecule = "CC(C)c1ccc(NC(=O)CC[C@@H]2c3c[nH]nc3[C@@]3(C)CCC4c5ccc(F)cc5CCC4C23)nc1 (stereo partly shown) [Compound 87]"
class_name = "Not fulfilled"


----------
- system_name: recombinant human 17β-HSD1 (Homo sapiens)
- Construct: made in house; host or cells: Sd9 (Sf9) insect cells, baculovirus (Bac to Bac Expression System)
- Sequence (P14061 whole entry): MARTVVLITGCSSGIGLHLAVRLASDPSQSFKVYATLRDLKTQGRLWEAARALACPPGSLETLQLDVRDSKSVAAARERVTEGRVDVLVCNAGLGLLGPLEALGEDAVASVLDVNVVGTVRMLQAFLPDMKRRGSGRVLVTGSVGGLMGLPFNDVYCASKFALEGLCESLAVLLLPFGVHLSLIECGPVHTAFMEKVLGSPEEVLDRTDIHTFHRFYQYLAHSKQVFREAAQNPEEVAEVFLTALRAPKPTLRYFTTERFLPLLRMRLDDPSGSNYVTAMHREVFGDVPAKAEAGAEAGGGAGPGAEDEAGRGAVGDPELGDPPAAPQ
- protocol: Inhibition of recombinant human 17β-HSD1 (estrone to estradiol conversion, HPLC/radioactivity)
- Format: biochemical
- condition: compound 100 nM; 30 nM estrone, 1 mM NADPH, 30 min RT
- Description: 17β-HSD1 production and isolation: Recombinant baculovirus was generated by the “Bac to Bac Expression System” (Invitrogen). Recombinant bacmid was transfected to Sd9 insect cells using “Cellfectin Reagent” (Invitrogen). […] Percent inhibition was calculated followingly: % inhibition=100−% conversion.
Recorded inhibition at 0.1 µM for the following compounds
value_type: inhibition at 0.1 µM (%)

[[record]]
compound = "C[C@]12CCC3c4cccc(F)c4CCC3C1[C@H](CCC(=O)Nc1cc(N3CCOCC3)ccn1)c1c[nH]nc12 (stereo partly drawn) [Compound 240]"
system_name = "recombinant human 17β-HSD1 (Homo sapiens)"
value_type = "inhibition at 0.1 µM"
units_of_measure = "%"
reported = 84

[[record]]
compound = "Cc1ccc(NC(=O)CC[C@@H]2c3c[nH]nc3[C@@]3(C)CCC4c5ccccc5CCC4C23)nn1 (stereo partly drawn) [Compound 195]"
system_name = "recombinant human 17β-HSD1 (Homo sapiens)"
value_type = "inhibition at 0.1 µM"
units_of_measure = "%"
reported = 70

[[record]]
compound = "Cc1ccnc(NC(=O)CC[C@@H]2c3c[nH]nc3[C@@]3(C)CCC4c5ccc(F)cc5CCC4C23)c1 (stereo partly drawn) [Compound 93]"
system_name = "recombinant human 17β-HSD1 (Homo sapiens)"
value_type = "inhibition at 0.1 µM"
units_of_measure = "%"
reported = 79

[[record]]
compound = "C[C@]12CCC3c4cccc(F)c4CCC3C1[C@H](CCC(=O)Nc1cc3c([nH]c1=O)CCCC3)c1c[nH]nc12 (stereo partly drawn) [Compound 30]"
system_name = "recombinant human 17β-HSD1 (Homo sapiens)"
value_type = "inhibition at 0.1 µM"
units_of_measure = "%"
reported = 95

[[record]]
compound = "CN(CC1CC1)C(=O)CC[C@@H]1c2c[nH]nc2[C@@]2(C)CCC3c4ccccc4CCC3C12 (stereo partly drawn) [Compound 174]"
system_name = "recombinant human 17β-HSD1 (Homo sapiens)"
value_type = "inhibition at 0.1 µM"
units_of_measure = "%"
reported = 88

[[record]]
compound = "C[C@]12CCC3c4ccccc4CCC3C1[C@H](CCC(=O)Nc1ncccc1F)c1c[nH]nc12 (stereo partly drawn) [Compound 264]"
system_name = "recombinant human 17β-HSD1 (Homo sapiens)"
value_type = "inhibition at 0.1 µM"
units_of_measure = "%"
reported = 54

[[record]]
compound = "C[C@]12CCC3c4cccc(F)c4CCC3C1[C@H](CCC(=O)Nc1cnccn1)c1c[nH]nc12 (stereo partly drawn) [Compound 51]"
system_name = "recombinant human 17β-HSD1 (Homo sapiens)"
value_type = "inhibition at 0.1 µM"
units_of_measure = "%"
reported = 90

[[record]]
compound = "CN(C)C(=O)CC[C@@H]1c2c[nH]nc2[C@@]2(C)CCC3c4cccc(F)c4CCC3C12 (stereo partly drawn) [Compound 222]"
system_name = "recombinant human 17β-HSD1 (Homo sapiens)"
value_type = "inhibition at 0.1 µM"
units_of_measure = "%"
reported = 91

[[record]]
compound = "C[C@]12CCC3c4cccc(F)c4CCC3C1[C@H](CCC(=O)N1Cc3ccccc3C1)c1c[nH]nc12 (stereo partly drawn) [Compound 57]"
system_name = "recombinant human 17β-HSD1 (Homo sapiens)"
value_type = "inhibition at 0.1 µM"
units_of_measure = "%"
reported = 92

[[record]]
compound = "C[C@]12CCC3c4cccc(F)c4CCC3C1[C@H](CCC(=O)Nc1nncs1)c1c[nH]nc12 (stereo partly drawn) [Compound 81]"
system_name = "recombinant human 17β-HSD1 (Homo sapiens)"
value_type = "inhibition at 0.1 µM"
units_of_measure = "%"
reported = 81

[[record]]
compound = "CN(CC(C)(C)O)C(=O)CC[C@@H]1c2c[nH]nc2[C@@]2(C)CCC3c4cccc(F)c4CCC3C12 (stereo partly drawn) [Compound 243]"
system_name = "recombinant human 17β-HSD1 (Homo sapiens)"
value_type = "inhibition at 0.1 µM"
units_of_measure = "%"
reported = 80

[[record]]
compound = "C[C@]12CCC3c4ccccc4CCC3C1[C@H](CCC(=O)Nc1ncc(F)cc1F)c1c[nH]nc12 (stereo partly drawn) [Compound 261]"
system_name = "recombinant human 17β-HSD1 (Homo sapiens)"
value_type = "inhibition at 0.1 µM"
units_of_measure = "%"
reported = 50

[[record]]
compound = "C[C@]12CCC3c4ccc(F)cc4CCC3C1[C@H](CCC(=O)Nc1cccnn1)c1c[nH]nc12 (stereo partly drawn) [Compound 114]"
system_name = "recombinant human 17β-HSD1 (Homo sapiens)"
value_type = "inhibition at 0.1 µM"
units_of_measure = "%"
reported = 53

[[record]]
compound = "C[C@]12CCC3c4ccc(F)cc4CCC3C1[C@H](CCC(=O)N1CCCC1)c1c[nH]nc12 (stereo partly drawn) [Compound 117]"
system_name = "recombinant human 17β-HSD1 (Homo sapiens)"
value_type = "inhibition at 0.1 µM"
units_of_measure = "%"
reported = 73

[[record]]
compound = "Cc1ccc(NC(=O)CC[C@@H]2c3c[nH]nc3[C@@]3(C)CCC4c5cccc(F)c5CCC4C23)nn1 (stereo partly drawn) [Compound 228]"
system_name = "recombinant human 17β-HSD1 (Homo sapiens)"
value_type = "inhibition at 0.1 µM"
units_of_measure = "%"
reported = 87

